Can you tell me Test A disease control rating for the items I'm about to list?
# System: Pythium aphanidermatum
# ASSAY REMARKS: Test A: bluegrass pythium blight, preventive spray on bluegrass seedlings
# CONDITION: 200 ppm
Numbers only, in %.

[[record]]
compound = "O=c1c(-n2cccn2)nc(Cl)c(-c2c(F)cccc2F)n1C1CCCCC1 [compound 47]"
result_type = "Test A disease control rating"
value = 74

[[record]]
compound = "COCC(C)n1c(-c2c(F)cccc2F)c(Cl)nc(-n2cccn2)c1=O (stereo not drawn) [compound 93]"
result_type = "Test A disease control rating"
value = 0


Proceeding to the next compound to report its Test A disease control rating.
Form entry - test system: Pythium aphanidermatum; read-out: Test A disease control rating; compound: CC(C)Cn1c(-c2ccoc2)c(Cl)nc(-n2cccn2)c1=O [compound 153] 0

----------
# Tested on: Phytophthora infestans
# ASSAY REMARKS: whole plant or invertebrate
# Format: in vivo
# CONDITION: 200 ppm; 100 = 100% disease control, 0 = no control relative to controls
Exercise: for every item that follows, state its recorded Test F disease control rating.
Answers are plain numbers, in %.

Below are worked cases with known answers.
[[record]]
compound = "CCn1c(-c2ccc(F)cc2Cl)c(Cl)nc(C(N)=O)c1=O"
value = 9

[[record]]
compound = "CCC(C)Cn1c(-c2ccc(OC)cc2F)c(Cl)nc(-n2cccn2)c1=O (centres unmarked)"
value = 0

[[record]]
compound = "CC(=O)N=c1c(C#N)nc(C)c(-c2ccccc2)n1CC(C)C"
value = 0


Value sought for every listed compound: Test F disease control rating.
1. O=c1c(-n2cccn2)nc(Cl)c(-c2c(F)cccc2F)n1-c1ccccc1OC(F)(F)F [compound 397]
2. CC(C)Cn1c(-c2ccc(F)cc2F)c(F)nc(C(N)=O)c1=N
3. COc1cccc(-n2c(-c3c(F)cccc3F)c(Cl)nc(-n3cccn3)c2=O)c1

1: 0; 2: 0; 3: 0

----------
Please respond with reported pest or weed control at 40 ppm for every item in the list.
# Tested on: Septoria tritici
# ASSAY REMARKS: Test J: wheat leaf blotch, preventive spray on wheat seedlings
# Format: in vivo
# CONDITION: Zymoseptoria tritici, 528 h; 40 ppm (*); read-out: Test J disease control rating
Hi, when you answer, please include the unit after the number. Thanks!

As a guide, the following entries are already answered.
[[record]]
compound = "Cc1nc(-n2cccn2)c(=O)n(CC(C)C)c1-c1c(F)cccc1F [Compound 149]"
value = "100%"

[[record]]
compound = "O=c1c(-n2cccn2)nc(Cl)c(-c2c(F)cccc2F)n1-c1ccccc1 [Compound 161]"
value = "97%"

[[record]]
compound = "CC[C@H](C)Cn1c(-c2c(F)cc(F)cc2F)c(Cl)nc(-n2cccn2)c1=O [Compound 155]"
value = "100%"


With those in mind, consider the next compound.
What value of measured pest or weed control at 40 ppm is listed for CCC(C)Cn1c(-c2ccc(F)cc2Cl)c(Cl)nc(-n2ccc(C)n2)c1=O (stereo not shown) [Compound 170] ? 100%

----------
# Tested on: Botrytis cinerea
# ASSAY REMARKS: Test E: tomato botrytis, preventive spray on tomato seedlings
# CONDITION: 40 ppm (marked *); 100 = 100% disease control, 0 = no control
Marks after values point to notes of the source that are not given here.
RESULT TYPE: Test E disease control rating

Record excerpt, results attached:
[[record]]
compound = "O=c1c(-n2cccn2)nc(Cl)c(-c2c(F)cc(F)cc2F)n1-c1cccc(F)c1F [compound 369]"
target_of_assay = "Botrytis cinerea"
result_type = "Test E disease control rating"
value = "99* %"

[[record]]
compound = "O=c1c(-n2cccn2)nc(Cl)c(-c2c(F)cccc2F)n1Cc1cccc(Cl)c1 [compound 275]"
target_of_assay = "Botrytis cinerea"
result_type = "Test E disease control rating"
value = "100* %"

[[record]]
compound = "O=c1c(-n2cccn2)nc(Cl)c(-c2c(F)cc(F)cc2F)n1-c1ccccc1 [compound 287]"
target_of_assay = "Botrytis cinerea"
result_type = "Test E disease control rating"
value = "100* %"

[[record]]
compound = "O=c1c(-n2cncn2)nc(Cl)c(-c2c(F)cccc2F)n1Cc1ccc(F)cc1 [compound 273]"
target_of_assay = "Botrytis cinerea"
result_type = "Test E disease control rating"
value = "99* %"

[[record]]
compound = "O=c1c(-n2cccn2)nc(Cl)c(-c2c(F)cccc2F)n1-c1ccc(OC(F)(F)F)cc1 [compound 398]"
target_of_assay = "Botrytis cinerea"
result_type = "Test E disease control rating"
value = "98* %"


For every listed record, write down its Test E disease control rating.
1. O=c1c(-n2cccn2)nc(Cl)c(-c2c(F)cccc2F)n1-c1ccccc1Br [compound 360]
2. O=c1c(-n2cccn2)nc(Cl)c(-c2c(F)cccc2F)n1-c1cccc(F)c1F [compound 380]
3. CCC(C)Cn1c(-c2c(F)cc(F)cc2F)c(Cl)nc(C(=O)NOC)c1=O (centres unmarked) [compound 417]

1: 99* %; 2: 99* %; 3: 99* %

----------
# Tested on: fusarium graminearium
# ASSAY REMARKS: Test I: wheat head scab, preventive spray on wheat seedlings
# CONDITION: 200 ppm; 100 = 100% disease control, 0 = no control
RESULT TYPE: Test I disease control rating

[[record]]
molecule = "Cc1ccn(-c2nc(Cl)c(C(C)C)n(CC(C)C)c2=O)n1 [compound 289]"
result_type = "Test I disease control rating"
value = "0%"


Each of the following entries comes with a recorded value; kindly state Test I disease control rating for each.
1. Cc1ccn(-c2nc(Cl)c(C(C)C)n(Cc3ccccc3)c2=O)n1 [compound 305]
2. O=c1c(-n2cccn2)nc(Cl)c(-c2ccccc2Cl)n1Cc1ccccc1 [compound 288]
3. CC(C)Cn1c(-c2c(F)cccc2F)c(Cl)nc(-c2cnccn2)c1=O.Cl [compound 364]

0%
0%
82%

# query: Test I disease control rating of entry CC(C)Cn1c(C2CCCCC2)c(Cl)nc(-n2cccn2)c1=O [compound 291] 0%

----------
# System: Puccinia recondita f. sp. tritici
# ASSAY REMARKS: Test K: wheat leaf rust, preventive spray on wheat seedlings
# CONDITION: 40 ppm (*)
Marks after values point to notes of the source that are not given here.
RESULT TYPE: Test K disease control rating

Below, 3 compounds whose answers are already recorded.
[[record]]
compound = "Cc1cc(C)cc(-c2c(Cl)nc(-n3cccn3)c(=O)n2CC(C)C)c1"
value = "0* %"

[[record]]
compound = "CSCCn1c(-c2c(F)cccc2F)c(Cl)nc(-n2cccn2)c1=O"
value = "0* %"

[[record]]
compound = "CCC(C)Cn1c(-c2c(F)cccc2F)c(Cl)nc(-n2ccc(C#N)n2)c1=O (stereo not drawn)"
value = "68* %"


List reported Test K disease control rating for each of these compounds:
1. CC(C)Cn1c(-c2c(F)cccc2F)c(Cl)nc(-c2nccs2)c1=O
2. COC=C(C)n1c(-c2c(F)cccc2F)c(Cl)nc(-n2cncn2)c1=O
3. CC(C)Cn1c(-c2cccnc2Cl)c(Cl)nc(-n2cccn2)c1=O
4. CCCCn1c(-c2c(F)cc(F)cc2F)c(Cl)nc(-n2nccc2C)c1=O
5. CC(C)Cn1c(-c2cccnc2)c(Cl)nc(-n2cncn2)c1=O

1. 0* %
2. 0* %
3. 8* %
4. 0* %
5. 0* %

Record CSCCn1c(-c2c(F)cccc2F)c(Cl)nc(-n2cncn2)c1=O : what is its Test K disease control rating with Puccinia recondita f. sp. tritici? 0* %

----------
# System: Puccinia recondita f. sp. tritici
# ASSAY REMARKS: Test K: wheat leaf rust, preventive spray on wheat seedlings
# CONDITION: 40 ppm (*)
Marks after values point to notes of the source that are not given here.
RESULT TYPE: Test K disease control rating

[[record]]
compound = "CCC(C)Cn1c(-c2c(F)cccc2F)c(Cl)nc(-n2ccnc2C(C)C)c1=O (stereo not drawn)"
target_of_assay = "Puccinia recondita f. sp. tritici"
value = "61* %"

[[record]]
compound = "CCC(C)Cn1c(-c2c(F)cccc2F)c(Cl)nc(NN(C)C)c1=O (stereo not drawn)"
target_of_assay = "Puccinia recondita f. sp. tritici"
value = "28* %"

[[record]]
compound = "O=c1c(-n2cccn2)nc(Cl)c(-c2c(F)cccc2F)n1Cc1ccco1"
target_of_assay = "Puccinia recondita f. sp. tritici"
value = "91* %"

[[record]]
compound = "COC(=O)Cn1c(-c2c(F)cccc2F)c(Cl)nc(-n2cccn2)c1=O"
target_of_assay = "Puccinia recondita f. sp. tritici"
value = "28* %"

[[record]]
compound = "N#Cc1nc(Cl)c(-c2c(F)cccc2F)n(Cc2ccc(Cl)cc2)c1=O"
target_of_assay = "Puccinia recondita f. sp. tritici"
value = "0* %"

[[record]]
compound = "COc1ccccc1-c1c(Cl)nc(-n2cncn2)c(=O)n1CC(C)C"
target_of_assay = "Puccinia recondita f. sp. tritici"
value = "0* %"

[[record]]
compound = "Cc1ccn(-c2nc(C)c(-c3c(F)cccc3F)n(CC(C)C)c2=O)n1"
target_of_assay = "Puccinia recondita f. sp. tritici"
value = "45* %"

[[record]]
compound = "CCC(C)Cn1c(-c2ccc(F)cc2Cl)c(Cl)nc(-n2nc(C)cc2C)c1=O (stereo not drawn)"
target_of_assay = "Puccinia recondita f. sp. tritici"
value = "0* %"


Entry CCC(C)Cn1c(-c2ccc(F)cc2Cl)c(Cl)nc(N2CCC(=O)N2)c1=O (stereo not drawn) : reported Test K disease control rating = ? 86* %

The reported measurements were obtained from patent US20080194585A1.
